- Assayed target: Platelet-derived growth factor receptor beta (Homo sapiens, UniProt P09619)
- Sequence (P09619 whole entry): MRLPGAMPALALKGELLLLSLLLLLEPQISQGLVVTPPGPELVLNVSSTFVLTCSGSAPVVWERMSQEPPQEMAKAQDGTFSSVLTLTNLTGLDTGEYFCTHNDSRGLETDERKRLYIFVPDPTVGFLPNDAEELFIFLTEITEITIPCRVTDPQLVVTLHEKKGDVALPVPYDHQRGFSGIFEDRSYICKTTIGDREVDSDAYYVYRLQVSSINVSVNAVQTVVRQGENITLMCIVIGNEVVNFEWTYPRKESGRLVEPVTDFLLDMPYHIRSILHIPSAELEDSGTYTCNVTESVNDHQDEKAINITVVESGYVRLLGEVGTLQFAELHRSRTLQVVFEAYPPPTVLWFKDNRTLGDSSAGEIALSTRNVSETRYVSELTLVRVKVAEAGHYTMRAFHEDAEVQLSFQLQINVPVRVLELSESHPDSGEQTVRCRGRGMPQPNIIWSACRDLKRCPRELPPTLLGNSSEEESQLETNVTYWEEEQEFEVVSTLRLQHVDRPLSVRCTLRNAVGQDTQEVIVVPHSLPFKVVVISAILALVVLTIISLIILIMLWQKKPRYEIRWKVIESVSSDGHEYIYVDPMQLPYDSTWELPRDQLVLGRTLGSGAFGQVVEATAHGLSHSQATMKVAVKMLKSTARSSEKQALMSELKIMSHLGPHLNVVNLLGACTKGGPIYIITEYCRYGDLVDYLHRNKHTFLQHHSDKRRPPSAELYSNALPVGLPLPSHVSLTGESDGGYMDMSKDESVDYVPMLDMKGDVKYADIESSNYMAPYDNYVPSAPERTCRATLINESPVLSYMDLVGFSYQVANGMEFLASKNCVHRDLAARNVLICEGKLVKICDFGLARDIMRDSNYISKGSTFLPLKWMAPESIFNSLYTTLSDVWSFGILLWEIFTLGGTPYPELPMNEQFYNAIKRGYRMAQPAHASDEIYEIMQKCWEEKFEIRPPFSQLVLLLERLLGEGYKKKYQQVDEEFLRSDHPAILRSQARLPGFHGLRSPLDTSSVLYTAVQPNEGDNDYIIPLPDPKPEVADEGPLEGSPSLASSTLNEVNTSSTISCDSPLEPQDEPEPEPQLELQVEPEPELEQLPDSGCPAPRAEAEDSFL
Readout type: pIC50
// returns pIC50 (minus log10 of molar concentration), number only

q: // fetch pIC50; item: CC(=O)Nc1ccc(CNc2cc(C(=O)N[C@H]3CCCC[C@@H]3O)ccc2C)cn1 ; system: Platelet-derived growth factor receptor beta (Homo sapiens, UniProt P09619)
a: 7.18
